The measured values listed here are drawn from paper PMC3914206.

EXPERIMENTAL SYSTEM: panel of 442 kinases (Homo sapiens, UniProt Q9H422)
Construct: purchased KINOMEscan
Sequence (Q9H422 whole entry): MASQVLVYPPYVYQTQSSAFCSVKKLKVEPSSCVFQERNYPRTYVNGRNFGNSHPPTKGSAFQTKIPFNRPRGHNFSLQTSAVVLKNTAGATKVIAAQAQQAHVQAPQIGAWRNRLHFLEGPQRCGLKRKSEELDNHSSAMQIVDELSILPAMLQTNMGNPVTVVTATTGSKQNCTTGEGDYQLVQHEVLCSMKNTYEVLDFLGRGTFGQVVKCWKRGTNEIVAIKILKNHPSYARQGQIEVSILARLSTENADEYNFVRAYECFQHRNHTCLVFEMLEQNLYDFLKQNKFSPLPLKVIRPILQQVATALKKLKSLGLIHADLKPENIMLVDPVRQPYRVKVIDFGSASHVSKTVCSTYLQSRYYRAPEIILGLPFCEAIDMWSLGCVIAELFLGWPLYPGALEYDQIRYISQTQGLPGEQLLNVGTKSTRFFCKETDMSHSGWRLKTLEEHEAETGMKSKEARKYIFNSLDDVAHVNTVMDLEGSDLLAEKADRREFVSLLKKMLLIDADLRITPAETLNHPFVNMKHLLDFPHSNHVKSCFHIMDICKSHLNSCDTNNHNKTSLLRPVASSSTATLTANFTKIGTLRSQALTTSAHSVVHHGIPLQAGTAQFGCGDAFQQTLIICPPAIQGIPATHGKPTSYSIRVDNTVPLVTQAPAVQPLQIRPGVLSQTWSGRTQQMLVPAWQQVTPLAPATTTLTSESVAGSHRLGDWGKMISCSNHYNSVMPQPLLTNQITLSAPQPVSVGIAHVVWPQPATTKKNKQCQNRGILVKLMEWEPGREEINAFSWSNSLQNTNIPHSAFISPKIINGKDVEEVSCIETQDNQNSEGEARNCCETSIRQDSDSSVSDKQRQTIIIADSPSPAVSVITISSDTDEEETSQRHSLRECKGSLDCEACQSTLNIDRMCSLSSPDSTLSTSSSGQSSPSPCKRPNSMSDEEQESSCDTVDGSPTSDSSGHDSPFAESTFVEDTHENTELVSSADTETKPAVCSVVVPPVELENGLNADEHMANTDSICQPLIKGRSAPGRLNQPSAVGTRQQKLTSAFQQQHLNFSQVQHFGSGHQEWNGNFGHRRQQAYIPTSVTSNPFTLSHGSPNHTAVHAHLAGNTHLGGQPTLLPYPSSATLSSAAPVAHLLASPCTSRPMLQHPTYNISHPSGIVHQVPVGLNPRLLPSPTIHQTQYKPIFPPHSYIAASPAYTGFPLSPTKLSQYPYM
Assay type: binding
MEASUREMENT CONDITIONS: Compound Concentration 10 µM
From the text: We assessed the selectivity of members of this scaffold using the KINOMEscan methodology across a near comprehensive panel of 442 kinases [[18,27]].
KINOMEscan: HIPK3 listing for selected compounds.
MEASUREMENT TYPE: KINOMEscan: HIPK3

MOLECULE SMILES	MEASUREMENT TYPE	RESULT
CCOc1cc(C(=O)N2CCC(N3CCN(C)CC3)CC2)ccc1Nc1ncc2c(n1)N(C1CCCC1)c1ccccc1C(=O)N2C	KINOMEscan: HIPK3	92
COc1cc(C(=O)N2CCC(N3CCN(C)CC3)CC2)ccc1Nc1ncc2c(n1)N(C1CCCC1)c1ccccc1C(=O)N2C	KINOMEscan: HIPK3	100
COc1cc(C(=O)N2CCC(N3CCN(C)CC3)CC2)ccc1Nc1ncc2c(n1)N(C)c1ccccc1C(=O)N2C	KINOMEscan: HIPK3	89
COc1cc(C(=O)N2CCC(N3CCN(C)CC3)CC2)ccc1Nc1ncc2c(n1)N1CCc3cccc(c31)C(=O)N2C	KINOMEscan: HIPK3	48

---

EXPERIMENTAL SYSTEM: panel of 442 kinases (Homo sapiens)
Construct: purchased KINOMEscan
Type: binding
MEASUREMENT CONDITIONS: Compound Concentration 10 µM
Examples of compounds with documented KINOMEscan: CLK3 follow.
MEASUREMENT TYPE: KINOMEscan: CLK3

MOLECULE SMILES	QUANTITATIVE READOUT
COc1cc(C(=O)N2CCC(N3CCN(C)CC3)CC2)ccc1Nc1ncc2c(n1)N(C1CCCC1)c1ccccc1C(=O)N2C	100
COc1cc(C(=O)N2CCC(N3CCN(C)CC3)CC2)ccc1Nc1ncc2c(n1)N1CCc3cccc(c31)C(=O)N2C	80
COc1cc(C(=O)N2CCC(N3CCN(C)CC3)CC2)ccc1Nc1ncc2c(n1)N(C)c1ccccc1C(=O)N2C	95
CCOc1cc(C(=O)N2CCC(N3CCN(C)CC3)CC2)ccc1Nc1ncc2c(n1)N(C1CCCC1)c1ccccc1C(=O)N2C	100

---

EXPERIMENTAL SYSTEM: panel of 442 kinases (Homo sapiens)
Construct: purchased KINOMEscan
Sequence (O14757 1-476): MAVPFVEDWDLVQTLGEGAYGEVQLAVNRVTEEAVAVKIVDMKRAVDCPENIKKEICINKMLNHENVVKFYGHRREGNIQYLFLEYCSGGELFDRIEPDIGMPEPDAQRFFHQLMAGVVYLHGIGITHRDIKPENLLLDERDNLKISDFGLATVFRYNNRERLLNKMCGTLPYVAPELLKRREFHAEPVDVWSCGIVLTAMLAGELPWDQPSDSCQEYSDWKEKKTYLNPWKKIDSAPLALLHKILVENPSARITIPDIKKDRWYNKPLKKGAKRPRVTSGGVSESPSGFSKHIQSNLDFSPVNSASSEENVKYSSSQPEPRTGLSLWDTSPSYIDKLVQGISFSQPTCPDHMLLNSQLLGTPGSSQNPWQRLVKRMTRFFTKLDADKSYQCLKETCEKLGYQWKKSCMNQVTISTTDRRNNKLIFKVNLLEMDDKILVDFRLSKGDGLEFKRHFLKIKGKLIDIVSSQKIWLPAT
Format: binding
MEASUREMENT CONDITIONS: Compound Concentration 10 µM
Quick reference: KINOMEscan: CHEK1 of the listed items.
MEASUREMENT TYPE: KINOMEscan: CHEK1

MOLECULE SMILES	QUANTITATIVE READOUT
COc1cc(C(=O)N2CCC(N3CCN(C)CC3)CC2)ccc1Nc1ncc2c(n1)N1CCc3cccc(c31)C(=O)N2C	85
COc1cc(C(=O)N2CCC(N3CCN(C)CC3)CC2)ccc1Nc1ncc2c(n1)N(C)c1ccccc1C(=O)N2C	100
CCOc1cc(C(=O)N2CCC(N3CCN(C)CC3)CC2)ccc1Nc1ncc2c(n1)N(C1CCCC1)c1ccccc1C(=O)N2C	100
COc1cc(C(=O)N2CCC(N3CCN(C)CC3)CC2)ccc1Nc1ncc2c(n1)N(C1CCCC1)c1ccccc1C(=O)N2C	100

---

EXPERIMENTAL SYSTEM: panel of 442 kinases (Homo sapiens, UniProt Q13554)
Construct: purchased KINOMEscan
Sequence (Q13554 whole entry): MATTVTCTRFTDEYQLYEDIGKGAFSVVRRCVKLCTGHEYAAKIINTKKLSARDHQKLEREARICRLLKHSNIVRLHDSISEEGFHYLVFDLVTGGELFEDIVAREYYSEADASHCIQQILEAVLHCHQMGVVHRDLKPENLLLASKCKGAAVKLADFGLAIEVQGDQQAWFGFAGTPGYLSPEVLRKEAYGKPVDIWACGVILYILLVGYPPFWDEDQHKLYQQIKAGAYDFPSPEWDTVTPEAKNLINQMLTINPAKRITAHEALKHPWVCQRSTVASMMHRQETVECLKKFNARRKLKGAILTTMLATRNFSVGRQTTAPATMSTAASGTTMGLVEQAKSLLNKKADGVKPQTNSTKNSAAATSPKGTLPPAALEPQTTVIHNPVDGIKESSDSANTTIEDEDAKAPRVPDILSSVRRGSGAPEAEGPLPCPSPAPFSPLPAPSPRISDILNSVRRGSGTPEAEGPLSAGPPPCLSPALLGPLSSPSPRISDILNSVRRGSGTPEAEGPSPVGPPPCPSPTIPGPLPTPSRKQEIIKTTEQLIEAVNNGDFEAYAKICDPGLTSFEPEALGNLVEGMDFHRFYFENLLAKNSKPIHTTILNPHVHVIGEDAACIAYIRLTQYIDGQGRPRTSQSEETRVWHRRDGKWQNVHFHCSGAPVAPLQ
Format: binding
Set-up: unit: % Ctrl
MEASUREMENT CONDITIONS: Compound Concentration 10 µM
Each record here notes measured KINOMEscan: CAMK2B.
MEASUREMENT TYPE: KINOMEscan: CAMK2B

MOLECULE SMILES	EXPERIMENTAL SYSTEM	MEASUREMENT TYPE	QUANTITATIVE READOUT
COc1cc(C(=O)N2CCC(N3CCN(C)CC3)CC2)ccc1Nc1ncc2c(n1)N(C)c1ccccc1C(=O)N2C	panel of 442 kinases (Homo sapiens, UniProt Q13554)	KINOMEscan: CAMK2B	62
CCOc1cc(C(=O)N2CCC(N3CCN(C)CC3)CC2)ccc1Nc1ncc2c(n1)N(C1CCCC1)c1ccccc1C(=O)N2C	panel of 442 kinases (Homo sapiens, UniProt Q13554)	KINOMEscan: CAMK2B	78
COc1cc(C(=O)N2CCC(N3CCN(C)CC3)CC2)ccc1Nc1ncc2c(n1)N1CCc3cccc(c31)C(=O)N2C	panel of 442 kinases (Homo sapiens, UniProt Q13554)	KINOMEscan: CAMK2B	62
COc1cc(C(=O)N2CCC(N3CCN(C)CC3)CC2)ccc1Nc1ncc2c(n1)N(C1CCCC1)c1ccccc1C(=O)N2C	panel of 442 kinases (Homo sapiens, UniProt Q13554)	KINOMEscan: CAMK2B	80

---

EXPERIMENTAL SYSTEM: panel of 442 kinases (Homo sapiens, UniProt Q9P0L2)
Construct: purchased KINOMEscan
Sequence (Q9P0L2 whole entry): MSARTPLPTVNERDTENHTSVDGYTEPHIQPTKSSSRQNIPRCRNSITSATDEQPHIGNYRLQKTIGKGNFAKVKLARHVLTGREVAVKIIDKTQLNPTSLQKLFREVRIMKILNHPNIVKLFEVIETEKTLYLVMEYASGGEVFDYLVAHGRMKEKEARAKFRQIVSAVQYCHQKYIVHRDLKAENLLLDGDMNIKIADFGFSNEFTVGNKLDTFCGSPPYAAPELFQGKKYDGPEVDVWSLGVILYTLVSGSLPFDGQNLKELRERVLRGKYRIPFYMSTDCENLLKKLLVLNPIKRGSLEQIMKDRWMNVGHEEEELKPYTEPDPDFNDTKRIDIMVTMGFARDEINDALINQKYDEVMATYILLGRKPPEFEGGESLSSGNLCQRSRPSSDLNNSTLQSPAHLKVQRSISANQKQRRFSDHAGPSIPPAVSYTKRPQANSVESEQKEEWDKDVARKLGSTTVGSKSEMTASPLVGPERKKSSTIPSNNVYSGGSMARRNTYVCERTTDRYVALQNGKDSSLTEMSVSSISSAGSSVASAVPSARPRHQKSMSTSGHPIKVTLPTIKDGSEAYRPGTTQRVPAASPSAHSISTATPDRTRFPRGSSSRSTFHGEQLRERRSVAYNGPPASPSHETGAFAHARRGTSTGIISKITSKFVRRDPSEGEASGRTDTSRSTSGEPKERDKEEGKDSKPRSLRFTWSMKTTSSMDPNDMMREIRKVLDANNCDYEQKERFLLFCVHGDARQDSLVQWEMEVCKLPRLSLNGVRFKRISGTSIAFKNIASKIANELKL
Format: binding
MEASUREMENT CONDITIONS: Compound Concentration 10 µM
MEASUREMENT TYPE: KINOMEscan: MARK1

COMPOUND	QUANTITATIVE READOUT
COc1cc(C(=O)N2CCC(N3CCN(C)CC3)CC2)ccc1Nc1ncc2c(n1)N(C)c1ccccc1C(=O)N2C [15 (LRRK2-IN-1)]	87
COc1cc(C(=O)N2CCC(N3CCN(C)CC3)CC2)ccc1Nc1ncc2c(n1)N1CCc3cccc(c31)C(=O)N2C [Compound 24]	83
CCOc1cc(C(=O)N2CCC(N3CCN(C)CC3)CC2)ccc1Nc1ncc2c(n1)N(C1CCCC1)c1ccccc1C(=O)N2C [Compound 26]	100
COc1cc(C(=O)N2CCC(N3CCN(C)CC3)CC2)ccc1Nc1ncc2c(n1)N(C1CCCC1)c1ccccc1C(=O)N2C [Compound 25]	99

---

Reported % Ctrl, SYK values for the following compounds.
EXPERIMENTAL SYSTEM: panel of 442 kinases (Homo sapiens, UniProt P43405)
Construct: purchased KINOMEscan
Assay type: binding
MEASUREMENT CONDITIONS: kinase SYK; compound concentration 10 µM

MOLECULE SMILES	EXPERIMENTAL SYSTEM	% Ctrl, SYK, % Ctrl
COc1cc(C(=O)N2CCC(N3CCN(C)CC3)CC2)ccc1Nc1ncc2c(n1)N1CCc3cccc(c31)C(=O)N2C	panel of 442 kinases (Homo sapiens, UniProt P43405)	88
CCOc1cc(C(=O)N2CCC(N3CCN(C)CC3)CC2)ccc1Nc1ncc2c(n1)N(C1CCCC1)c1ccccc1C(=O)N2C	panel of 442 kinases (Homo sapiens, UniProt P43405)	100
COc1cc(C(=O)N2CCC(N3CCN(C)CC3)CC2)ccc1Nc1ncc2c(n1)N(C)c1ccccc1C(=O)N2C	panel of 442 kinases (Homo sapiens, UniProt P43405)	100
COc1cc(C(=O)N2CCC(N3CCN(C)CC3)CC2)ccc1Nc1ncc2c(n1)N(C1CCCC1)c1ccccc1C(=O)N2C	panel of 442 kinases (Homo sapiens, UniProt P43405)	100

---

KINOMEscan: RSK1(Kin.Dom.1-N-terminal) values, listed per item
EXPERIMENTAL SYSTEM: panel of 442 kinases (Homo sapiens)
Construct: purchased KINOMEscan
Format: binding
MEASUREMENT CONDITIONS: Compound Concentration 10 µM
MEASUREMENT TYPE: KINOMEscan: RSK1(Kin.Dom.1-N-terminal)

MOLECULE	EXPERIMENTAL SYSTEM	RESULT
COc1cc(C(=O)N2CCC(N3CCN(C)CC3)CC2)ccc1Nc1ncc2c(n1)N(C)c1ccccc1C(=O)N2C [15 (LRRK2-IN-1)]	panel of 442 kinases (Homo sapiens)	73
COc1cc(C(=O)N2CCC(N3CCN(C)CC3)CC2)ccc1Nc1ncc2c(n1)N(C1CCCC1)c1ccccc1C(=O)N2C [Compound 25]	panel of 442 kinases (Homo sapiens)	75
CCOc1cc(C(=O)N2CCC(N3CCN(C)CC3)CC2)ccc1Nc1ncc2c(n1)N(C1CCCC1)c1ccccc1C(=O)N2C [Compound 26]	panel of 442 kinases (Homo sapiens)	100
COc1cc(C(=O)N2CCC(N3CCN(C)CC3)CC2)ccc1Nc1ncc2c(n1)N1CCc3cccc(c31)C(=O)N2C [Compound 24]	panel of 442 kinases (Homo sapiens)	71
